system: PC-3; experiment: Antitumor activity against human PC-3 cells assessed as cell growth inhibition at 10 uM incubated for 48 hrs by sulforhodamine B assay; format: functional; conditions: read-out: GI
Below is a list of entries, each paired with its recorded inhibition of growth at 10 µM value.

# lineNotation, inhibition of growth at 10 µM / %
rows = [
    ("Nc1nn2cc(-c3ccccc3)[nH]c2c1/N=N/c1ccc(S(N)(=O)=O)cc1", 68),
    ("Nc1nn2cc(-c3ccc(Br)cc3)[nH]c2c1/N=N/c1ccc(S(N)(=O)=O)cc1", 39),
    ("N#Cc1c(-c2ccc(F)cc2)nc2c(/N=N/c3ccc(S(N)(=O)=O)cc3)c(N)nn2c1N", 29),
    ("N#Cc1c(-c2ccc(Cl)cc2)nc2c(/N=N/c3ccc(S(N)(=O)=O)cc3)c(N)nn2c1N", 38),
]
